The reader will find reported pKi values listed item by item below.
# SYSTEM_NAME: 5-hydroxytryptamine receptor 1A (Rattus norvegicus, UniProt P19327)
# Sequence (P19327 whole entry): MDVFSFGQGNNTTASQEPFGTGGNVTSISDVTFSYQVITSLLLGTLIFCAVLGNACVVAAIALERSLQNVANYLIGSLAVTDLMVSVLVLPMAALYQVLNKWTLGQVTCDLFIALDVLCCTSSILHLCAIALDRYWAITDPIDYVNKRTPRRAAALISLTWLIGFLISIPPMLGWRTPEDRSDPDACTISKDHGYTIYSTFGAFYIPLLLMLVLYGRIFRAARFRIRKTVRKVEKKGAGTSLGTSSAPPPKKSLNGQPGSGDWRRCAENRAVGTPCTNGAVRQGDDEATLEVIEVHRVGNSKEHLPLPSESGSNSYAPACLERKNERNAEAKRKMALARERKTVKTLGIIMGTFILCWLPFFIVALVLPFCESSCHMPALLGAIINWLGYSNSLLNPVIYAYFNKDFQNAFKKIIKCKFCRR
# TEST: The compound was evaluated for binding affinity against 5-hydroxytryptamine 1A receptor in rat hippocampal membranes using [3H]8-OH-DPAT as radioligand in the presence of 3*10e-5 M GTP gamma S
# Format: cell membranes, Hippocampus
# pKi is unitless: minus log10 of the molar concentration; print number only

- COMPOUND: "CCCN(CCC)C1CCc2c(C)ccc(O)c2C1 (configuration not stated)"
  SYSTEM_NAME: "5-hydroxytryptamine receptor 1A (Rattus norvegicus, UniProt P19327)"
  MEASURED_PROPERTY: "pKi"
  VALUE_MEASURED: 7.09

Please examine the following record next.
Form: compound = CC(C)(C)NCC(O)COc1cccc2c1SCCC2 (configuration not stated) ; pKi = 7.42
